Source: ChEMBL document CHEMBL1961873

I'd appreciate it if you could supply inhibition values for the items below.
system: Serine/threonine-protein kinase B-raf (Homo sapiens), P15056 [V600E]; conditions: at 1 µM
Sequence (P15056 whole entry V600E): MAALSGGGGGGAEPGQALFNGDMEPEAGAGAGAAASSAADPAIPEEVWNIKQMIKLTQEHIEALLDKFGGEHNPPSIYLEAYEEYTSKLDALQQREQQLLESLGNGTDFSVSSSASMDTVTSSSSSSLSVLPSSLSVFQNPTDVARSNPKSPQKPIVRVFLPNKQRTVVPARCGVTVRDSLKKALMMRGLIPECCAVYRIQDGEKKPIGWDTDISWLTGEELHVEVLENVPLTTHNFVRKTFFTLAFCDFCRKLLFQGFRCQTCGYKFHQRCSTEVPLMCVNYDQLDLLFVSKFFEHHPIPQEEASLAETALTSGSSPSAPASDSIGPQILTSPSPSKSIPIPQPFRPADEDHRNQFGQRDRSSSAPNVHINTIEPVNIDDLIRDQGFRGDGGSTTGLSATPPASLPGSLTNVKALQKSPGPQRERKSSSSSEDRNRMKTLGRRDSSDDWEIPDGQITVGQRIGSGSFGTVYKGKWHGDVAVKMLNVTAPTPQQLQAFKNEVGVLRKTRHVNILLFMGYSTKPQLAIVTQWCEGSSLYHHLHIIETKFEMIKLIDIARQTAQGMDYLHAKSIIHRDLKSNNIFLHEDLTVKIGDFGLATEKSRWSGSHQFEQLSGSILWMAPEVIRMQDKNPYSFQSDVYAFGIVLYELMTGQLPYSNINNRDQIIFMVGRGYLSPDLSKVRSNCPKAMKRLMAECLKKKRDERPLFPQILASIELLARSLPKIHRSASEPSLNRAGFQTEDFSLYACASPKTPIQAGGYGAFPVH
Description: GSK_PKIS: BRAF (V599E mutant) mean inhibition at 1 uM [Nanosyn]
Please give a number only; it is taken to be in %.

Quote inhibition with test system Serine/threonine-protein kinase B-raf (Homo sapiens), P15056 [V600E] for COc1ccc(-c2nn3ncccc3c2-c2ccnc(Nc3ccc(F)c(F)c3)n2)cc1
3.83

Look up Serine/threonine-protein kinase B-raf (Homo sapiens), P15056 [V600E] data: inhibition of CC1(C)CC(n2cnc(-c3ccc(F)cc3)c2-c2ccnc(N)n2)CC(C)(C)N1 , then report it.
0.8

Answer briefly: inhibition recorded on Serine/threonine-protein kinase B-raf (Homo sapiens), P15056 [V600E] for CS(=O)(=O)Nc1ccc(-c2cc(-c3ccccc3)cc(C(N)=O)c2N)cc1
3.58

With Serine/threonine-protein kinase B-raf (Homo sapiens), P15056 [V600E] as the test system, provide measured inhibition for this compound: COc1ccc2ncn(-c3cc(O[C@H](C)c4ccccc4C(F)(F)F)c(C(N)=O)s3)c2c1
-0.82

State, for Serine/threonine-protein kinase B-raf (Homo sapiens), P15056 [V600E], measured inhibition of the compound listed here: CCCNc1cccc(-n2ncc3c(N/N=C/c4ccncc4)ncnc32)c1
2.86

Report value only: inhibition, Serine/threonine-protein kinase B-raf (Homo sapiens), P15056 [V600E], COC(=O)Nc1nc2ccc(Oc3ccc(NC(=O)Nc4cc(C(F)(F)F)ccc4F)cc3)cc2s1
37.3

Determine reported inhibition for NS(=O)(=O)c1ccc(N/N=C2\C(=O)Nc3ccc(C(=O)NCc4ccncc4)cc32)cc1 ; test system: Serine/threonine-protein kinase B-raf (Homo sapiens), P15056 [V600E].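 Also: enzyme inhibition of the BRAF V599E mutant kinase, given as mean percent inhibition, screened within the GSK PKIS kinase inhibitor set.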
56.3

Give the observed inhibition of COc1ccccc1-c1cc(/C=C2\C(=O)Nc3ncc(Br)cc32)cc(Br)c1O for Serine/threonine-protein kinase B-raf (Homo sapiens), P15056 [V600E].
8.04

Report inhibition from Serine/threonine-protein kinase B-raf (Homo sapiens), P15056 [V600E] testing of N#Cc1ccc2c(-c3ccnc(NC4CC4)n3)c(-c3ccc(F)cc3)nn2c1
4.72

* * *

Could you please report measured inhibition for the items listed next?
biological target: Platelet-derived growth factor receptor alpha (Homo sapiens); details: at 1 µM
Supply the numeric figure in %, leaving out any unit text.

# return inhibition for COc1ccc(Nc2ncc(-c3ccccc3)o2)cc1OC , test system: Platelet-derived growth factor receptor alpha (Homo sapiens)
68.6

Lab note: record inhibition of CC1=C(C(=O)Nc2ccc3[nH]nc(C)c3c2)C(c2ccc(C(F)(F)F)cc2)CC(=O)N1 (stereo unspecified) tested on Platelet-derived growth factor receptor alpha (Homo sapiens).
19.3

Fill in inhibition for CCS(=O)(=O)c1ccc(OC)c(Nc2ncc(-c3cccc(F)c3)o2)c1 tested with Platelet-derived growth factor receptor alpha (Homo sapiens).
70.7

Provide inhibition, system Platelet-derived growth factor receptor alpha (Homo sapiens), entry CCOc1ccc2c(-c3ccnc(Nc4cc(OC)cc(C(F)(F)F)c4)n3)cnn2n1
30

Quote Platelet-derived growth factor receptor alpha (Homo sapiens) inhibition for entry CCn1c(-c2nonc2N)nc2cncc(C(=O)NCCNC)c21 .
14.2

State measured inhibition of the compound Cc1cc(O)cc(C)c1/C=C/c1cncc(C(N)=O)c1 with Platelet-derived growth factor receptor alpha (Homo sapiens).
39.4

Give inhibition for this entry on Platelet-derived growth factor receptor alpha (Homo sapiens): CC1(C)CC(n2cnc(-c3ccc(F)cc3)c2-c2ccnc(N)n2)CC(C)(C)N1
5.34

Using Platelet-derived growth factor receptor alpha (Homo sapiens) as the test system, report measured inhibition of N#Cc1ccc2c(-c3ccnc(NC4CC4)n3)c(-c3ccc(F)cc3)nn2c1 .
11.6

# lookup: Platelet-derived growth factor receptor alpha (Homo sapiens) inhibition, key = Cc1nnc(-c2cccc(-c3ccc(C(=O)NCC4CC4)cc3)c2)o1
15.2

Give reported inhibition for Cc1ccc(-c2cc3c(NC(=O)C4CC4)ncnc3o2)cc1 (Platelet-derived growth factor receptor alpha (Homo sapiens))
38.1

Identify measured inhibition obtained with Platelet-derived growth factor receptor alpha (Homo sapiens) for COc1cc2c(cc1Nc1nc(Nc3cccc(F)c3C(N)=O)c3cc[nH]c3n1)N(C(=O)CN1CCN(C(C)C)CC1)CC2 .
15.2

Enter recorded inhibition with Platelet-derived growth factor receptor alpha (Homo sapiens) for N#Cc1cccc(Nc2ncc(-c3ccccc3)o2)c1 here.
17

Report inhibition from Platelet-derived growth factor receptor alpha (Homo sapiens) testing of COC(=O)Nc1nc2cc(Oc3ccc(NC(=O)Nc4ccccc4)cc3)ccc2[nH]1
66.6

Look up and report inhibition, with Platelet-derived growth factor receptor alpha (Homo sapiens) as system, for COc1cc(N2CCN(C(C)C)CC2)ccc1Nc1nc(Nc2cccc(F)c2C(=O)O)c2cc[nH]c2n1
12.8

# return inhibition for CNC(=O)c1cncc(/C=C/c2ccccc2C)c1 , test system: Platelet-derived growth factor receptor alpha (Homo sapiens)
17.8

System Platelet-derived growth factor receptor alpha (Homo sapiens). Read-out inhibition. Item CNC(=O)c1ncccc1Nc1nc(Nc2cc3c(cc2OC)CCCN3C(=O)CN(C)C)nc2[nH]ccc12 . Report value.
20.6

Quote Platelet-derived growth factor receptor alpha (Homo sapiens) inhibition for entry CC(C)c1ccc(-c2cc(-c3c[nH]nc3-c3ccccn3)ccn2)cc1 .
19.8

Quote Platelet-derived growth factor receptor alpha (Homo sapiens) inhibition for entry Cc1cc(O)cc(C)c1/C=C/c1cncc(C(=O)OC(C)(C)C)c1 .
42.6

// output inhibition; input CCS(=O)(=O)c1ccc(OC)c(Nc2ncc(-c3cccc(C(C)=O)c3)o2)c1 ; system Platelet-derived growth factor receptor alpha (Homo sapiens)
68

Give inhibition only, for Fc1cccc(COc2ccc(Nc3ncncc3C#Cc3ccccc3)cc2Cl)c1 , using Platelet-derived growth factor receptor alpha (Homo sapiens) data.
12.4

Please tell me the measured inhibition for CS(=O)(=O)Nc1ccc(-c2cc(-c3ccccc3)cc(C(N)=O)c2N)cc1 ; system: Platelet-derived growth factor receptor alpha (Homo sapiens).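 Also: values are mean percent inhibition of PDGFRA.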
12.1

* * *

molecular target: Cyclin-dependent kinase 2 (Homo sapiens); details: at 0.1 µM
Kindly supply the reported inhibition values for the records listed here.
Number only, in %; omit the unit.

Give inhibition for CNC(=O)c1sc(-n2cnc3cc(OC)c(OC)cc32)cc1OCc1ccccc1C(F)(F)F tested on Cyclin-dependent kinase 2 (Homo sapiens).
2.17

Enter measured inhibition, system Cyclin-dependent kinase 2 (Homo sapiens), for the compound shown: OCCCNc1nccc(-c2c(-c3ccc(F)cc3)nn3cc(C(F)(F)F)ccc23)n1
0.52

Enter recorded inhibition with Cyclin-dependent kinase 2 (Homo sapiens) for CCS(=O)(=O)c1ccc(OC)c(Nc2ncc(-c3cccc(F)c3)o2)c1 here.
4.05

# lookup: Cyclin-dependent kinase 2 (Homo sapiens) inhibition, key = CC1(C)CC(n2cnc(-c3ccc(F)cc3)c2-c2ccnc(N)n2)CC(C)(C)N1
1.34

Enter measured inhibition, system Cyclin-dependent kinase 2 (Homo sapiens), for the compound shown: CS(=O)(=O)CCNCc1ccc(-c2ccc3ncnc(Nc4ccc(OCc5cccc(C(F)(F)F)c5)cc4)c3c2)o1;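 also: mean inhibition of CDK2 in complex with cyclin E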
2.01

* * *

target: Leukocyte tyrosine kinase receptor (Homo sapiens) (UniProt P29376); conditions: at 0.1 µM
Sequence (P29376 whole entry): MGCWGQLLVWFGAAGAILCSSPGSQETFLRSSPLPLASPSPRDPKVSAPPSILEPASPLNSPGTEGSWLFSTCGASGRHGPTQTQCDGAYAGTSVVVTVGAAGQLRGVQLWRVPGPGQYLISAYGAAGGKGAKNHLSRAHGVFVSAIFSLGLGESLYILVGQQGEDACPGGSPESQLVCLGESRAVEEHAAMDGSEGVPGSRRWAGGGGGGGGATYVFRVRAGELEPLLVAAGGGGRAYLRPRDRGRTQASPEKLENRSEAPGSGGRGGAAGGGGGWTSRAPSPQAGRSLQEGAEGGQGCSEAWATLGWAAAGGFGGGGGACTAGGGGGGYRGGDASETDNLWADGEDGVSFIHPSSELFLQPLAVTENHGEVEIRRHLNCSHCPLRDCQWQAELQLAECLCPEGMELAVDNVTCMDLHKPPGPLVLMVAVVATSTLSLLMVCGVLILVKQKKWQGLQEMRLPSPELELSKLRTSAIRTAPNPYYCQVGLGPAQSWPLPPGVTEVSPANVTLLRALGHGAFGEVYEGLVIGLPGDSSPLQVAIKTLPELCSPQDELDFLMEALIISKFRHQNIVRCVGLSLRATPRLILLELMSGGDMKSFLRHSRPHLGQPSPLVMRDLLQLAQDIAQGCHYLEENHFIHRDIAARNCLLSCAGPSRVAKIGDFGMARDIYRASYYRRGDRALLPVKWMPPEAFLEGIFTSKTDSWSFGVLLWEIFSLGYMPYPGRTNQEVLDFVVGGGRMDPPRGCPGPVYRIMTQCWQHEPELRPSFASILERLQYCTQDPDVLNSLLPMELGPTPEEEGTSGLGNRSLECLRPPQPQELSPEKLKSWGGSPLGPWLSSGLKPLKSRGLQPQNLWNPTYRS
Description: GSK_PKIS: LTK mean inhibition at 0.1 uM [Nanosyn]
READOUT_NAME: inhibition (%)
Please give a number only; it is taken to be in %.

Determine from records and report inhibition for c1cnn2ncc(-c3ccnc(NCCCN4CCOCC4)n3)c2c1
2.87

Read the entry NS(=O)(=O)c1ccc(N/N=C2\C(=O)Nc3ccc(C(=O)NCc4ccncc4)cc32)cc1 and write its reported inhibition.
2.1

Indicate the recorded inhibition value for this compound: CNC(=O)c1ncccc1Nc1nc(Nc2cc3c(cc2OC)CCCN3C(=O)CN(C)C)nc2[nH]ccc12
86.9

Entry CS(=O)(=O)CCNCc1ccoc1-c1ccc2ncnc(Nc3ccc(OCc4ccccc4)cc3)c2c1 needs its inhibition filled in; supply it.
1.59

* * *

Kindly supply the reported inhibition values for the records listed here.
Biological target: Serine/threonine-protein kinase TBK1 (Homo sapiens);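 also: values are the mean TBK1 inhibition, taken from the GSK PKIS screening data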
Sequence (whole entry): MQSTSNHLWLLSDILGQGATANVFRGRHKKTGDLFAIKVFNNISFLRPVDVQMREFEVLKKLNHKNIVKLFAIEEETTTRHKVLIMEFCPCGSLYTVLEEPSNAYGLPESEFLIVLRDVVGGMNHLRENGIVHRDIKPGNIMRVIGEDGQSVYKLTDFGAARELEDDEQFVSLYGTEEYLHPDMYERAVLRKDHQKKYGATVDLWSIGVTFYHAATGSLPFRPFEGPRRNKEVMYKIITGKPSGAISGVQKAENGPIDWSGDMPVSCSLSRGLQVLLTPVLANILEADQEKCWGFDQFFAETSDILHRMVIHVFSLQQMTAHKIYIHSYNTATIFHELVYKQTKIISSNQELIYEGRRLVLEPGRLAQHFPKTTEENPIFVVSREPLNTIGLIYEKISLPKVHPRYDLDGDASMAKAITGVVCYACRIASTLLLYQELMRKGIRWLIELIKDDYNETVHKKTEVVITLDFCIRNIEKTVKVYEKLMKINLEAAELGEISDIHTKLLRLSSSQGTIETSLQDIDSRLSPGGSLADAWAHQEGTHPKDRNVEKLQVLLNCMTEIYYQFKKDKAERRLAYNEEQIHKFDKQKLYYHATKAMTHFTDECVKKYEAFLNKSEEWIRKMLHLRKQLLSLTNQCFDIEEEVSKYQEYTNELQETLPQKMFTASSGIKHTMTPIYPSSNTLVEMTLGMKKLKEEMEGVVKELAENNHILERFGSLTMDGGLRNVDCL
Conditions: at 0.1 µM
Dear colleague, please return just the value in %, with no unit written.

# return recorded inhibition for input COc1ccc(-c2nn3ncccc3c2-c2ccnc(Nc3ccc(F)c(F)c3)n2)cc1
-2.71

Supply recorded inhibition for COc1cccc(-n2ncc3c(N/N=C/c4ccc(C(=O)NCCN(C)C)cc4)ncnc32)c1 here.
2.76

Identify the reported inhibition for the following entry. COc1cc(N2CCN(C(C)C)CC2)ccc1Nc1nc(Nc2cccc3ncccc23)c2cc[nH]c2n1
-0.11

Provide measured inhibition value, entry: O=C(Nc1n[nH]c2nnc(-c3cccnc3)cc12)C1CC1
0.25

Supply recorded inhibition for FC(F)(F)CNc1nccc(-c2cnn3ncccc23)n1 here.
1.42
